Assay: Cytotoxicity against human HEL cells assessed as concentration required to cause microscopically alternation of cellular morphology
Assay type: cell-based
# reported MCC; entries follow
endpoint: MCC

smiles: Nc1ncc(I)c2c1ncn2[C@@H]1C[C@H](O)[C@@H](O)[C@H]1O
reported: > 100 µM
//
smiles: Nc1ncc(Cl)c2c1ncn2[C@@H]1C[C@H](O)[C@@H](O)[C@H]1O
reported: > 100 µM
//
smiles: Nc1ncc(Br)c2c1ncn2[C@@H]1C[C@H](O)[C@@H](O)[C@H]1O
reported: > 200 µM

====

Assay: Cytotoxicity against african green monkey Vero cells assessed as concentration required to cause microscopically alternation of cellular morphology
Format: cell-based
Conditions: chlorocebus sabaeus
endpoint: MCC

smiles: Nc1ncc(Br)c2c1ncn2[C@@H]1C[C@H](O)[C@@H](O)[C@H]1O
endpoint: MCC
reported: > 8 µM
--
smiles: Nc1ncc(Cl)c2c1ncn2[C@@H]1C[C@H](O)[C@@H](O)[C@H]1O
endpoint: MCC
reported: > 200 µM
--
smiles: Nc1ncc(I)c2c1ncn2[C@@H]1C[C@H](O)[C@@H](O)[C@H]1O
endpoint: MCC
reported: 100 µM

// provenance: ChEMBL document CHEMBL2311354
